FYI, the data here is from ChEMBL document CHEMBL1147366.

Measured EC50 of individual entries
test system: Plasmodium falciparum; test: Antimalarial activity after 24 hrs against chloroquine-sensitive Plasmodium falciparum D6 infected type A+ human erythrocytes by [3H]hypoxanthine uptake; format: functional; details: read-out: ED50 (the source's name)

smiles input	subject of test	EC50
COC1=C(OC)[C@]23CCc4cc5c(cc4[C@]2(CCN3C)CC1=O)OCO5	Plasmodium falciparum	> 10 µg/mL
COc1cc2c(cc1OC)[C@@H]1Cc3ccc(O)c(OC)c3CN1CC2	Plasmodium falciparum	2.84 µg/mL
COC1=C[C@@]23CCN(C)[C@@H](Cc4ccc(OC)c(O)c42)C3=CC1=O	Plasmodium falciparum	> 10 µg/mL

====

test: Cytotoxicity against human LUC1 cells after 3 days by SRB assay; type: functional; details: LUC1, 72 h, read-out: ED50 (the source's name)
observed property: EC50 (µg/mL)

compound	modifier	numeric value
COc1ccc2c(c1)C[C@@H]1c3c(cc4c(c3-2)OCO4)CCN1C	=	12.2
COc1c(O[C@@H]2O[C@H](CO)[C@@H](O)[C@H](O)[C@H]2O)cc2c3c1-c1ccccc1C[C@H]3NCC2	>	20
COc1cc2c(cc1O)C[C@H]1c3c(cc4c(c3-2)OCO4)CCN1C	=	6.6
COc1cc2c(cc1O)-c1c3c(cc4c1[C@@H](C2)N(C)CC4)OCO3	=	3.1
COc1ccc2c(c1)C[C@H]1NCCc3cc4c(c-2c31)OCO4	=	2.3
COc1cc2c(cc1OC)-c1c3c(cc4c1[C@@H](C2)N(C)CC4)OCO3	=	6.1
COc1cc2c(cc1OC)-c1c3c(cc4c1[C@@H](C2)NCC4)OCO3	=	13.2
COc1c(O)cc2c3c1-c1ccccc1C[C@H]3NCC2 [(-)-ASIMILOBINE]	>	20
CN1CCc2cc3c(c4c2[C@H]1Cc1cc(O)ccc1-4)OCO3	=	6.9
c1ccc2c(c1)C[C@H]1NCCc3cc4c(c-2c31)OCO4	=	1.8

====

test: Selectivity index, ED50 for human KB cells to ED50 for chloroquine-resistant Plasmodium falciparum W2; assay type: toxicity, cell-based; conditions: read-out: Ratio ED50
Define the label as Satisfied when selectivity ratio is strictly less than 3 and as Not satisfied in all remaining cases.

compound	label
C=C[C@H]1CN2CC[C@H]1C[C@H]2[C@H](O)c1ccnc2ccc(OC)cc12	Not satisfied
COc1cc2c(cc1OC)-c1c3c(cc4c1[C@@H](C2)N(C)CC4)OCO3	Satisfied
C[C@@H]1CC[C@H]2[C@@H](C)C(=O)O[C@@H]3O[C@@]4(C)CC[C@@H]1[C@]32OO4	Not satisfied
COc1cc2c(cc1OC)[C@@H]1Cc3ccc(O)c(OC)c3CN1CC2	Not satisfied
COc1c(O)cc2c3c1-c1ccccc1C[C@H]3NCC2 [(-)-ASIMILOBINE]	Not satisfied
CN1CCc2cc3c(c4c2[C@H]1Cc1cc(O)ccc1-4)OCO3	Not satisfied
COc1ccc2c(c1)C[C@H]1NCCc3cc4c(c-2c31)OCO4	Not satisfied
COc1cc2c(cc1OC)CN1CCc3cc(OC)c(OC)c(O)c3[C@@H]1C2	Not satisfied
COc1cc2c(c(O)c1OC)[C@@H]1Cc3ccc(OC)c(OC)c3CN1CC2	Not satisfied
COc1cc2c(cc1O)-c1c3c(cc4c1[C@@H](C2)N(C)CC4)OCO3	Satisfied
COc1cc2c(c(O)c1OC)CCN1Cc3c(ccc(OC)c3OC)C[C@@H]21	Not satisfied
COc1ccc2c(c1)C[C@@H]1c3c(cc4c(c3-2)OCO4)CCN1C	Satisfied

====

test system: Plasmodium falciparum; assay: Antimalarial activity after 24 hrs against chloroquine-resistant Plasmodium falciparum W2 infected type A+ human erythrocytes by [3H]hypoxanthine uptake; format: functional; conditions: read-out: ED50 (the source's name)
Measured EC50 of individual entries
observed property: EC50 (µg/mL)

compound	modifier	numeric value
COC1=C(OC)[C@]23CCc4cc5c(cc4[C@]2(CCN3C)CC1=O)OCO5	>	10
COc1cc2c(cc1OC)-c1c3c(cc4c1[C@@H](C2)NCC4)OCO3	=	1.03
CN1CCc2cc3c(c4c2[C@H]1Cc1cc(O)ccc1-4)OCO3	=	1.78
COc1c(O)cc2c3c1-c1ccccc1C[C@H]3NCC2 [(-)-ASIMILOBINE]	=	0.47
COc1cc2c(cc1OC)-c1c3c(cc4c1[C@@H](C2)N(C)CC4)OCO3	=	2.55
COc1cc2c(c(O)c1OC)[C@@H]1Cc3ccc(OC)c(OC)c3CN1CC2	=	1.91
COC1=C[C@@]23CCN(C)[C@@H](Cc4ccc(OC)c(O)c42)C3=CC1=O	>	10
COc1cc2c(cc1O)C[C@H]1c3c(cc4c(c3-2)OCO4)CCN1C [CASSYTHICINE]	=	2.26
COc1cc2c(c(O)c1OC)CCN1Cc3c(ccc(OC)c3OC)C[C@@H]21	=	0.55

====

Measured selectivity ratio of individual entries
experiment: Selectivity index, ED50 for human KB cells to ED50 for chloroquine-sensitive Plasmodium falciparum D6; type: toxicity, cell-based; conditions: read-out: Ratio ED50

compound	selectivity ratio
COc1cc2c(cc1OC)CN1CCc3cc(OC)c(OC)c(O)c3[C@@H]1C2	> 9
COc1c(O)cc2c3c1-c1ccccc1C[C@H]3NCC2 [(-)-ASIMILOBINE]	> 21
C[C@@H]1CC[C@H]2[C@@H](C)C(=O)O[C@@H]3O[C@@]4(C)CC[C@@H]1[C@]32OO4	> 33300
COc1cc2c(cc1O)-c1c3c(cc4c1[C@@H](C2)N(C)CC4)OCO3	1
C=C[C@H]1CN2CC[C@H]1C[C@H]2[C@H](O)c1ccnc2ccc(OC)cc12	> 2130

====

assay: Cytotoxicity against human KB cells after 3 days by SRB assay; assay type: cell-based; conditions: read-out: ED50
Define the label as true when CC50 at 72 h is strictly less than 3 µg/mL and as false in all remaining cases.

compound	label
COc1cc2c(cc1OC)-c1c3c(cc4c1[C@@H](C2)N(C)CC4)OCO3	true
COc1ccc2c(c1)C[C@H]1NCCc3cc4c(c-2c31)OCO4	true
CN1CCc2cc3c(c4c2[C@H]1Cc1cc(O)ccc1-4)OCO3	false
COc1c(O)cc2c3c1-c1ccccc1C[C@H]3NCC2 [(-)-ASIMILOBINE]	false
COc1cc2c(cc1OC)-c1c3c(cc4c1[C@@H](C2)NCC4)OCO3	true
c1ccc2c(c1)C[C@H]1NCCc3cc4c(c-2c31)OCO4	true
COc1c(O[C@@H]2O[C@H](CO)[C@@H](O)[C@H](O)[C@H]2O)cc2c3c1-c1ccccc1C[C@H]3NCC2	false
COc1ccc2c(c1)C[C@@H]1c3c(cc4c(c3-2)OCO4)CCN1C	true
COc1cc2c(cc1O)-c1c3c(cc4c1[C@@H](C2)N(C)CC4)OCO3	true

====

assay: Selectivity index, ED50 for human KB cells to ED50 for chloroquine-sensitive Plasmodium falciparum D6; type: toxicity, cell-based; settings: read-out: Ratio ED50

smiles input	selectivity ratio
COc1ccc2c(c1)C[C@@H]1c3c(cc4c(c3-2)OCO4)CCN1C	> 1
COc1cc2c(c(O)c1OC)CCN1Cc3c(ccc(OC)c3OC)C[C@@H]21	> 12
COc1cc2c(cc1OC)[C@@H]1Cc3ccc(O)c(OC)c3CN1CC2	> 7
COc1cc2c(c(O)c1OC)[C@@H]1Cc3ccc(OC)c(OC)c3CN1CC2	> 5
